Data origin, for the record: patent US20250313563A1

pIC50 values by entry
- target_under_test: GSK3b (GST-full length GSK3b) (Homo sapiens (Human))
- Sequence (P49841 whole entry): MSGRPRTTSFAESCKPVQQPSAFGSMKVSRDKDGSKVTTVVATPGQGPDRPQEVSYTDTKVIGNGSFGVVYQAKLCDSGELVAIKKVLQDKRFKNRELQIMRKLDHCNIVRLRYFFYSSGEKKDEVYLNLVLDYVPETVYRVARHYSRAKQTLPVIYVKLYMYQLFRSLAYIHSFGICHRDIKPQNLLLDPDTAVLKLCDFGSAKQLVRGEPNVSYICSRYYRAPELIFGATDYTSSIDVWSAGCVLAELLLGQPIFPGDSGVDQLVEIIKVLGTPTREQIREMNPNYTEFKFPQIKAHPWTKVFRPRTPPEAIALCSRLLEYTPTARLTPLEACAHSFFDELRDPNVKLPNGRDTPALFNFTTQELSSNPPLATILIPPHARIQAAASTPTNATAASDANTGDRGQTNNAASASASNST
- assay_text: GSK3b TR-FRET kinase assay
- Format: biochemical
- settings: GSK3-B (TR-FRET 1 mM ATP); GMean; IC50, 1 mM ATP; geometric mean
pIC50: −log10 of the molar value.
readout_name: pIC50

> print(dat)
                                    molecule  recorded.measurement
 1  CC1(C)CC2=C(C(=O)N1)[C@](C)(c1cccc(S(C)(=O)=O)c1)c1c(n[nH]c1C1CC1)N2 [Compound 114744]                < 5.30
 2  CCC1(c2cccc(-c3cn(C)nc3C)c2)C2=C(Nc3n[nH]cc31)C(F)C(C)(C)CC2=O (single isomer, unassigned) [Compound 947651]          6.00 to 7.00
 3  CC1(C)CC(=O)C2=C(C1)Nc1n[nH]cc1C21CCN(S(=O)(=O)c2cccc(Cl)c2)CC1 [Compound 947243]          5.30 to 6.00
 4  CCC1(c2cccc(C(F)(F)F)c2)C2=C(Nc3n[nH]cc31)C(F)C(C)(C)CC2=O (single isomer, unassigned) [Compound 837803]                < 5.30
 5  CC1(C)CC(=O)C2=C(C1)Nc1n[nH]cc1[C@]21CCN(S(=O)(=O)c2ccccc2F)C1 [Compound 943487]          6.00 to 7.00
 6  CC1(C)CC(=O)C2=C(C1)Nc1n[nH]cc1C21CC2(CCCC2)C1 [Compound 874477]          5.30 to 6.00
 7  CC(C)S(=O)(=O)N1CCC2(CC1)C1=C(CC(C)(C)CC1=O)Nc1n[nH]cc12 [Compound 913129]          6.00 to 7.00
 8  COc1ncccc1S(=O)(=O)N1CCC2(CC1)C1=C(CC(C)(C)CC1=O)Nc1n[nH]cc12 [Compound 947260]          6.00 to 7.00
 9  CC1(C)CC(=O)C2=C(C1)Nc1n[nH]cc1C21CC2(CCOCC2)C1 [Compound 874534]          6.00 to 7.00
10  CC1(C)CC(=O)C2=C(C1)Nc1n[nH]cc1C21CCN(S(=O)(=O)c2cnn(CC(F)(F)F)c2)CC1 [Compound 948123]          6.00 to 7.00
11  CC(=O)N1C[C@]2(C[C@@]3(CO2)C2=C(CC(C)(C)CC2=O)Nc2n[nH]cc23)[C@H]1C [Compound 948439]                ≥ 7.00
12  COc1ccc(S(=O)(=O)N2CCC3(CC2)C2=C(CC(C)(C)CC2=O)Nc2n[nH]cc23)cc1 [Compound 901469]          6.00 to 7.00
13  Cn1cc(S(=O)(=O)N2CCC3(CC2)C2=C(CC(C)(C)CC2=O)Nc2n[nH]cc23)cn1 [Compound 901467]          5.30 to 6.00
14  Cn1cc(S(=O)(=O)N2CC[C@@]3(C2)C2=C(CC(C)(C)CC2=O)Nc2n[nH]cc23)cn1 [Compound 951726]          5.30 to 6.00
15  CC1(C)CC(=O)C2=C(C1)Nc1n[nH]cc1[C@]21CCN(S(=O)(=O)CC2CC2)C1 [Compound 951723]          6.00 to 7.00
